Please respond with reported IC50 for every item in the list.
target: Nicotinic acetylcholine receptor alpha9/alpha10 (Rattus norvegicus, UniProt P43144+Q9JLB5); experiment: Inhibition of rat alpha9alpha10 nAChR expressed in Xenopus laevis oocytes assessed as inhibition of Ach-induced response at -80 mV holding potential preincubated for 5 mins followed by Ach stimulation by two electrode voltage-clamp assay; format: cell-based, Oocyte
Sequence (P43144 whole entry): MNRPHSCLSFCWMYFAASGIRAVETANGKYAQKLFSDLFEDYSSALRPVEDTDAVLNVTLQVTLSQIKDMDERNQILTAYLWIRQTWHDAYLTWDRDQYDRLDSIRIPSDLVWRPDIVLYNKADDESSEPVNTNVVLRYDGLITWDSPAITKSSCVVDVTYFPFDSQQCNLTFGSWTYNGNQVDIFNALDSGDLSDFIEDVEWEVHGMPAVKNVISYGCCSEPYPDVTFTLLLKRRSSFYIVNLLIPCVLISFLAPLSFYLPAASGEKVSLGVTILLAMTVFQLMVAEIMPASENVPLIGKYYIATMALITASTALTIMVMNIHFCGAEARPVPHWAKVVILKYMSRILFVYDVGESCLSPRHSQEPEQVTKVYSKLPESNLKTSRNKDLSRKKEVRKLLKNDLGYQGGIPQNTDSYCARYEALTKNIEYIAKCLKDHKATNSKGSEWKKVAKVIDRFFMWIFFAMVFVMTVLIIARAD
Sequence (Q9JLB5 whole entry): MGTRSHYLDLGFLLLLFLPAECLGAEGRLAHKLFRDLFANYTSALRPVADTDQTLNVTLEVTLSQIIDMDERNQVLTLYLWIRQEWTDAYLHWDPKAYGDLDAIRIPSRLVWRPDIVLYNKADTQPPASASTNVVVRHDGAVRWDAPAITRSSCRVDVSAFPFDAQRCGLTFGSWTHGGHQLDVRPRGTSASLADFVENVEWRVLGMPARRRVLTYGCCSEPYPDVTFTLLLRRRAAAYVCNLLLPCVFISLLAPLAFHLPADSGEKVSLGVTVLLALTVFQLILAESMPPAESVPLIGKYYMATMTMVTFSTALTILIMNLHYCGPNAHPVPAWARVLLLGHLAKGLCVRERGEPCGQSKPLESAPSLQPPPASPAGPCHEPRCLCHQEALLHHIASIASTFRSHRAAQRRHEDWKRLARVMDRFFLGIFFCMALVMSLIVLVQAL
Peptide text beside a SMILES is read from it. * marks the point of attachment. Bz = O=C(c1ccccc1)*
Respond numerically; units are nM and should not be typed.

Identify the measured IC50 of CC[C@H](C)[C@H](NC(=O)[C@H](CCC(=O)O)NC(=O)[C@@H]1CCCN1C(=O)[C@H](Cc1cnc[nH]1)NC(=O)[C@H](CC(N)=O)NC(=O)[C@H](Cc1ccc(O)cc1)NC(=O)[C@H](CCCNC(=N)N)NC(=O)[C@H](CS)NC(=O)[C@H](CCCNC(=N)N)NC(=O)[C@@H]1CCCN1C(=O)[C@H](CC(=O)O)NC(=O)[C@H](CO)NC(=O)[C@H](CS)NC(=O)[C@H](CS)NC(=O)CN)C(=O)N[C@@H](CS)C(N)=O (H-GCCSDPRCRYNHPEIC-NH2) for Nicotinic acetylcholine receptor alpha9/alpha10 (Rattus norvegicus, UniProt P43144+Q9JLB5).
13900

Identify the measured IC50 of CC[C@H](C)[C@H](NC(=O)[C@H](CCC(=O)O)NC(=O)[C@@H]1CCCN1C(=O)[C@H](Cc1cnc[nH]1)NC(=O)[C@H](CC(=O)O)NC(=O)[C@H](Cc1ccc(O)cc1)NC(=O)[C@H](CCCNC(=N)N)NC(=O)[C@H](CS)NC(=O)[C@H](CCCNC(=N)N)NC(=O)[C@@H]1CCCN1C(=O)[C@H](CC(=O)O)NC(=O)[C@H](CO)NC(=O)[C@H](CS)NC(=O)[C@H](CS)NC(=O)CNC(=O)c1ccccc1)C(=O)N[C@@H](CS)C(N)=O (Bz-GCCSDPRCRYDHPEIC-NH2) for Nicotinic acetylcholine receptor alpha9/alpha10 (Rattus norvegicus, UniProt P43144+Q9JLB5).
875

Identify the measured IC50 of `CC[C@H](C)[C@H](NC(=O)[C@H](CCC(=O)O)NC(=O)[C@@H]1CCCN1C(=O)[C@H](Cc1cnc[nH]1)NC(=O)[C@H](CC(=O)O)NC(=O)[C@H](Cc1ccc(O)cc1)NC(=O)[C@H](CC(N)=O)NC(=O)[C@H](CS)NC(=O)[C@H](CCCNC(=N)N)NC(=O)[C@@H]1CCCN1C(=O)[C@H](CC(=O)O)NC(=O)[C@H](CO)NC(=O)[C@H](CS)NC(=O)[C@H](CS)NC(=O)CN)C(=O)N[C@@H](CS)C(N)=O` for Nicotinic acetylcholine receptor alpha9/alpha10 (Rattus norvegicus, UniProt P43144+Q9JLB5).
28.3

Identify the measured IC50 of CC[C@H](C)[C@H](NC(=O)[C@H](CCC(=O)O)NC(=O)[C@@H]1CCCN1C(=O)[C@H](Cc1cnc[nH]1)NC(=O)[C@H](CC(=O)O)NC(=O)[C@H](Cc1ccc(O)cc1)NC(=O)[C@H](CCCNC(=N)N)NC(=O)[C@H](CS)NC(=O)[C@H](CCCNC(=N)N)NC(=O)[C@@H]1CCCN1C(=O)[C@H](CC(=O)O)NC(=O)[C@H](CO)NC(=O)[C@H](CS)NC(=O)[C@H](CS)NC(=O)CNC(C)=O)C(=O)N[C@@H](CS)C(N)=O (Ac-GCCSDPRCRYDHPEIC-NH2) for Nicotinic acetylcholine receptor alpha9/alpha10 (Rattus norvegicus, UniProt P43144+Q9JLB5).
2420
